# Tested on: AT2R (Homo sapiens, UniProt P50052)
# Construct: expressed in transfected cells
# Sequence (P50052 whole entry): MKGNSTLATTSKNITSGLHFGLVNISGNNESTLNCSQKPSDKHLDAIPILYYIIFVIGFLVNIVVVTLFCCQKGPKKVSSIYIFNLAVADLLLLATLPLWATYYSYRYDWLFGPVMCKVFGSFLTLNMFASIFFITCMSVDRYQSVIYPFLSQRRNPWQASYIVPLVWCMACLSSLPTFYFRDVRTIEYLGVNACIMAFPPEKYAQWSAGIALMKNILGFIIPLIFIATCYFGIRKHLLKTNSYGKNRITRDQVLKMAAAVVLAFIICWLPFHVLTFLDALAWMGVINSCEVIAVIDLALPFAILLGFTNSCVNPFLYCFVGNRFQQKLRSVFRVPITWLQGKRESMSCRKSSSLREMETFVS
# Experiment summary: Whole cell competition binding assay, AT2R-HEK-293 stable cell line
# Conditions: whole cells, Table S4; read-out: Log IC50 AT2R (converted)
Peptide text beside a SMILES is read from it.

Compound: CC[C@H](C)[C@H](NC(=O)[C@@H]1CCCN1C(=O)[C@H](Cc1c[nH]cn1)NC(=O)[C@H](CCCCNC(=O)[C@H](CCCN=C(N)N)NC(=O)OCc1ccccc1)NC(=O)[C@H](Cc1ccc(O)cc1)NC(=O)c1cccnc1)C(=O)O [CGP42112] (HELM PEPTIDE1{[O=C(c1cccnc1)[*:2]].Y.K.H.P.I}|PEPTIDE2{[O=C(OCc1ccccc1)[*:2]].R}$PEPTIDE1,PEPTIDE2,3:R3-2:R2$$$V2.0)
IC50: 0.558 nM
//
Compound: CCOc1nc2cccc(C(=O)O)c2n1Cc1ccc(-c2ccccc2-c2nnn[nH]2)cc1 [Candesartan, candesartan]
IC50: 13500 nM
//
Compound: CC[C@H](C)[C@H](NC(=O)[C@H](Cc1ccc(O)cc1)NC(=O)[C@@H](NC(=O)[C@H](CCCNC(=N)N)NC(=O)[C@@H](N)CC(=O)O)C(C)C)C(=O)N[C@@H](Cc1ccc(OP(=O)(O)O)cc1)C(=O)N1CCC[C@H]1C(=O)N[C@@H](Cc1ccccc1)C(=O)O [[4-OPO3H2-F]^6-AII, D1-R2-V3-Y4-I5-(4-OPO3H2-F)6-P7-F8] (HELM PEPTIDE1{D.R.V.Y.I.[O=C([C@H](Cc1ccc(OP(=O)(O)O)cc1)N[*:1])[*:2]].P.F}$$$$V2.0)
IC50: 9.57 nM
//
Compound: CC[C@H](C)[C@H](NC(=O)[C@H](Cc1ccc(O)cc1)NC(=O)[C@@H](NC(=O)[C@H](CCCNC(=N)N)NC(=O)[C@@H](N)CC(=O)O)C(C)C)C(=O)N[C@@H](Cc1ccc([N+](=O)[O-])cc1)C(=O)N1CCC[C@H]1C(=O)N[C@@H](Cc1ccccc1)C(=O)O [[4-NO2-F]^6-AII, D1-R2-V3-Y4-I5-(4-NO2-F)6-P7-F8] (HELM PEPTIDE1{D.R.V.Y.I.[O=C([C@H](Cc1ccc([N+](=O)[O-])cc1)N[*:1])[*:2]].P.F}$$$$V2.0)
IC50: 4.92 nM
